Where these numbers come from: ChEMBL document CHEMBL5385940

assay: Cytotoxicity against mouse 3T3-L1 cells transfected with Lenti-PPARgamma-Luc reporter assessed as cell viability at 15 uM incubated for 48 hrs by CCK-8 assay relative to control; format: toxicity, cell-based; details: read-out: Activity
So I've got a bunch of compounds here, and I need their viability at 48 h, 15 µM values.

In: Provide one value: measured viability at 48 h, 15 µM of COc1ccc(C[C@@H]2c3cc(Oc4cc(C[C@@H]5c6cc(O)c(OC)cc6CCN5C)ccc4O)c(OC)cc3CCN2C)cc1
Out: < 80%

In: Identify measured viability at 48 h, 15 µM corresponding to C=C(c1ccc(OC)cc1)[C@@H]1c2cc(Oc3cc(C[C@H]4c5cc(OC)c(OC)cc5CCN4C)ccc3O)c(OC)cc2CCN1C
Out: > 80%

In: Name the recorded viability at 48 h, 15 µM of the compound listed here: COc1ccc(C[C@@H]2c3cc(Oc4cc(/C=C5\CN(C)CCc6cc(OC)c(OC)cc65)ccc4O)c(OC)cc3CCN2C)cc1
Out: > 80%

In: In one line, give reported viability at 48 h, 15 µM of the entry COc1cc2c(cc1OC)[C@@H](Cc1ccc(O)c(Oc3cc4c(cc3OC)CCN(C)[C@@H]4Cc3ccc(O)cc3)c1)N(C)CC2 .
Out: > 80%

In: Tell me its viability at 48 h, 15 µM given COc1cc2c(cc1O)[C@@H](Cc1ccc(O)c(Oc3cc4c(cc3OC)CCN(C)[C@@H]4Cc3ccc(O)cc3)c1)N(C)CC2 as the entry.
Out: > 80%

In: Determine from records and report viability at 48 h, 15 µM for C=C(c1ccc(O)c(Oc2cc3c(cc2OC)CCN(C)[C@@H]3Cc2ccc(OC)cc2)c1)[C@@H]1c2cc(O)c(OC)cc2CCN1C
Out: < 80%

In: Return value of viability at 48 h, 15 µM for input COc1ccc(C[C@@H]2c3cc(Oc4cc(C[C@@H]5c6cc(OC)c(OC)cc6CCN5C)ccc4O)c(OC)cc3CCN2C)cc1 , no commentary.
Out: < 80%
